Ref: PubChem BioAssay AID1159580

testDetails: chemical genetic growth profiling, strain panel (AID 1159580);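 note: tested at 20 µM; growth read once vehicle control cultures reached saturation at 30 °C; 1 = growth at the plate median or of vehicle wells; lower values mean less growth of the strain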
experimentalSetup: S. cerevisiae deletion strains, growth OD, locus YPL106C, strain sse1
Out of some 5,500 compounds screened, about 2,000 (36%) were called active. Roughly 18% stayed inconclusive and do not appear here. Cut-off read from the data, not from the text of the source: active = normalized growth mostly below about 0.91 (no sharp cut-off); inconclusive = no clear call, values can overlap the other calls; inactive = mostly above about 0.92. The list shows a part of the results.
Write down the outcome that applies. Available outcomes: TRUE (active), FALSE (inactive)

Before answering, review these 4 worked examples.
{"molecule": "COc1ccc(-c2oc3cc(O[C@H]4O[C@H](CO)[C@@H](O)[C@H](O)[C@H]4O)c(OC)c(O)c3c(=O)c2OC)cc1O", "discreteLabel": "FALSE"}
{"molecule": "CC1(C)C(=O)C=C[C@@]2(C)C1CC(=O)[C@]1(C)C2CC[C@@]2(C)[C@H](c3ccoc3)OC(=O)[C@H]3O[C@]321 (stereo not given in full)", "discreteLabel": "FALSE"}
{"molecule": "COc1ccc(-c2cc(=O)c3c(O)cc(O[C@@H]4O[C@H](CO[C@H]5O[C@H](C)[C@@H](O)[C@H](O)[C@@H]5O)[C@@H](O)[C@H](O)[C@H]4O)cc3o2)cc1O", "discreteLabel": "FALSE"}
{"molecule": "O=C1C=C2C(=CCOC2O)O1 (stereo not given)", "discreteLabel": "TRUE"}

Query: recorded result category for C[C@@H]1O[C@@H](OC[C@H]2OC(Oc3c(-c4ccc(O)c(O)c4)oc4cc(O)cc(O)c4c3=O)[C@H](O)[C@@H](O)[C@@H]2O)[C@H](O)[C@H](O)[C@H]1O (stereo not given in full) in this test
FALSE

---

Each entry below carries its reported normalized growth.
testDetails: chemical genetic growth profiling, strain panel (AID 1159580)
experimentalSetup: S. cerevisiae deletion strains, growth OD, locus YKL160W, strain elf1, hits give low values
The campaign covered roughly 5,500 compounds. About 2,000 (36%) were called active. Roughly 18% stayed inconclusive and do not appear here. The list shows a part of the results.
Would you mind answering with just the numeric figure?

{"molecule": "CC(=O)OC(C)C[N+](C)(C)C (stereo unspecified)", "normalized growth": 0.987}
{"molecule": "C[N+](C)(C)CC(O)CC(=O)O (stereo unspecified)", "normalized growth": 0.982}
{"molecule": "NC(=O)CN1CCCC1=O", "normalized growth": 0.967}
{"molecule": "OC1CC2CCCC(C1)N2Cc1ccccc1 (stereo unspecified)", "normalized growth": 1}
{"molecule": "Oc1ccc2c(c1)OCC1(O)Cc3cc(O)c(O)cc3C21 (stereo unspecified)", "normalized growth": 1.02}

Please examine the following record next.
For `O=C(O)C1=C[C@@H](O)[C@@H](O)[C@H](O)C1` , write its normalized growth.
0.987

---

testDetails: chemical genetic growth profiling, strain panel (AID 1159580)
experimentalSetup: S. cerevisiae deletion strains, growth OD, locus YBR023C, strain chs3, hits give low values
Among all 5,500 compounds or so, about 2,000 (36%) were called active. Not shown: some 18% with an inconclusive outcome. The list shows a part of the results. Where a SMILES comes first, the peptide text is derived from it.
endpointName: normalized growth
Would you mind answering with just the numeric figure?

Here's what some known entries look like.
{"molecule": "CC(=O)[C@@]1(O)CCC2C3C[C@H](C)C4=CC(=O)C=CC4(C)[C@@]3(F)[C@@H](O)C[C@@]21C (stereo partly drawn)", "normalized growth": 0.969}
{"molecule": "Oc1ccc2c(c1)OCC1(O)Cc3cc(O)c(O)cc3C21 (stereo not drawn)", "normalized growth": 1.03}
{"molecule": "CCCC(C)(COC(N)=O)COC(=O)NC(C)C (stereo not drawn)", "normalized growth": 1.01}
{"molecule": "COC(=O)[C@H](Cc1ccccc1)NC(=O)[C@@H](N)CC(=O)O (H-Asp-Phe-OMe)", "normalized growth": 1.02}
{"molecule": "CC1O[C@@H](Oc2c(-c3ccc(O)c(O)c3)oc3cc(O)cc(O)c3c2=O)[C@H](O)[C@H](O)[C@H]1O (stereo partly drawn)", "normalized growth": 0.995}
{"molecule": "CCCCCc1c2c(cc(O)c1C(=O)O)OC(=O)c1c(cc(OC)cc1C(=O)CCCC)O2", "normalized growth": 1}
{"molecule": "CCCCCC(=O)Cc1cc(O)cc(O)c1C(=O)Oc1cc(CC(=O)CCCCC)c(C(=O)O)c(OC)c1", "normalized growth": 0.907}

Please examine the following record next.
For CC(C)(C)NCC(O)c1cc(O)cc(O)c1 (stereo not drawn) , write its normalized growth.
0.972

---

testDetails: chemical genetic growth profiling, strain panel (AID 1159580);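 note: tested at 20 µM; growth read once vehicle control cultures reached saturation at 30 °C; 1 = growth at the plate median or of vehicle wells; lower values mean less growth of the strain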
experimentalSetup: S. cerevisiae deletion strains, growth OD, locus YKR026C, strain gcn3, hits give low values
Out of some 5,500 compounds screened, about 2,000 (36%) were called active. Inconclusive results (about 18%) are left out. The list shows a part of the results.
endpointName: normalized growth
Would you mind answering with just the numeric figure?

{"compound": "CCC(=O)c1c(O)cc(O)cc1O", "normalized growth": 0.992}
{"compound": "C=C1CCC2(OC1)OC1CC3C4CC=C5CC(O)CC(O)C5(C)C4CCC3(C)C1C2C (centres undefined)", "normalized growth": 0.994}
{"compound": "COC(=O)[C@]1(C)CCC[C@]2(C)c3ccc(C(C)C)cc3C(=O)CC12 (some centres undefined)", "normalized growth": 0.975}
{"compound": "Cc1cc(OC(=O)c2c(C)cc(O)cc2O)cc(O)c1C(=O)O", "normalized growth": 0.983}
{"compound": "COc1cccc2c(C)cc(=O)[nH]c12", "normalized growth": 0.972}

For CC(C)c1c(O)ccc2c1CCC1[C@@](C)(C=O)CCC[C@]21C (some centres undefined) , write its normalized growth.
1

For COC(=O)[C@@]1(C)CCC[C@]2(C)c3ccc(O)c(C(C)C)c3CCC12 (some centres undefined) , write its normalized growth.
0.978

For CC(=O)Oc1ccc2c(c1OC(C)=O)OCC1(O)Cc3c(cc(OC(C)=O)c(OC(C)=O)c3OC(C)=O)C21 (centres undefined) , write its normalized growth.
1.02

For `CN1C[C@H](C(=O)N[C@]2(C)O[C@@]3(O)[C@@H]4CCCN4C(=O)[C@H](Cc4ccccc4)N3C2=O)C[C@@H]2c3cccc4[nH]cc(c34)C[C@H]21` , write its normalized growth.
0.996

For `CC(C)[N+](C)(CCC(C(N)=O)(c1ccccc1)c1ccccc1)C(C)C` , write its normalized growth.
0.998

---

testDetails: chemical genetic growth profiling, strain panel (AID 1159580);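 note: tested at 20 µM; growth read once vehicle control cultures reached saturation at 30 °C; 1 = growth at the plate median or of vehicle wells; lower values mean less growth of the strain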
experimentalSetup: S. cerevisiae deletion strains, growth OD, locus YLR357W, strain rsc2, hits give low values
The campaign covered roughly 5,500 compounds. About 2,000 (36%) were called active. About 18% were inconclusive and are not listed. The list shows a part of the results.
endpointName: normalized growth
Would you mind answering with just the numeric figure?

{"molecule": "CCCCCCC(C)OC(=O)COc1ccc(Cl)cc1Cl (stereo not given)", "normalized growth": 1.01}

For C=CC1C2=CCOC(=O)C2=COC1OC1OC(CO)C(O)C(O)C1O (stereo not given) , write its normalized growth.
1

For CC(=O)O[C@@H]1CC2C(C)(C)C(=O)C=C[C@]2(C)C2CC[C@@]3(C)[C@H](c4ccoc4)OC(=O)[C@H]4O[C@]43[C@@]21C (stereo not given in full) , write its normalized growth.
1.12

For CC1(C)C(=O)C=C[C@@]2(C)C1C[C@@H](O)[C@]1(C)C2CC[C@@]2(C)[C@H](c3ccoc3)OC(=O)[C@H]3O[C@]321 (stereo not given in full) , write its normalized growth.
0.965

For C[N+](C)(C)CC(O)CC(=O)O (stereo not given) , write its normalized growth.
0.988

---

Each entry below carries its reported normalized growth.
testDetails: chemical genetic growth profiling, strain panel (AID 1159580);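 note: tested at 20 µM; growth read once vehicle control cultures reached saturation at 30 °C; 1 = growth at the plate median or of vehicle wells; lower values mean less growth of the strain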
experimentalSetup: S. cerevisiae deletion strains, growth OD, locus YPL051W, strain arl3, hits give low values
Screen size: about 5,500 compounds; about 2,000 (36%) were called active. Inconclusive results (about 18%) are left out. The list shows a part of the results.
Would you mind answering with just the numeric figure?

Here's what some known entries look like.
{"compound": "COc1ccc(-c2oc3cc(O[C@H]4O[C@H](CO)[C@@H](O)[C@H](O)[C@H]4O)c(OC)c(O)c3c(=O)c2OC)cc1O", "observedResult": 0.998}
{"compound": "OC1CC2CCCC(C1)N2Cc1ccccc1 (stereo unspecified)", "observedResult": 1}
{"compound": "CC1O[C@@H](Oc2c(-c3ccc(O)c(O)c3)oc3cc(O)cc(O)c3c2=O)[C@H](O)[C@H](O)[C@H]1O (stereo partly specified)", "observedResult": 0.983}
{"compound": "CC(=O)[C@@]1(O)CCC2C3C[C@H](C)C4=CC(=O)C=CC4(C)[C@@]3(F)[C@@H](O)C[C@@]21C (stereo partly specified)", "observedResult": 0.985}
{"compound": "COc1ccc(Cl)cc1C(=O)NCCc1ccc(S(=O)(=O)NC(=O)NC2CCCCC2)cc1", "observedResult": 1.01}

For CN[C@@H]1C(O)[C@@H](O[C@@H]2[C@@H](O)[C@H](O[C@H]3OC(CN)=CC[C@H]3N)[C@@H](N)C[C@H]2N)OC[C@]1(C)O (stereo partly specified) , write its normalized growth.
1.01

For CC(C)c1c(O)c(-c2cc3c(c(C(C)C)c2O)CCC2C(C)(C)CCC[C@]32C)cc2c1CCC1C(C)(C)CCC[C@]21C (stereo partly specified) , write its normalized growth.
0.999

For `CC[n+]1c(-c2ccccc2)c2cc(N)ccc2c2ccc(N)cc21` , write its normalized growth.
0.989

For CCC1OC(=O)[C@H](C)C(=O)[C@H](C)[C@@H](OC2O[C@H](C)C[C@H](N(C)C)[C@H]2O)[C@](C)(OC)C2(CCCn3cnc(-c4cccnc4)c3)C[C@@H](C)C(=O)[C@H](C)[C@H]3N(C2)C(=O)O[C@]13C (stereo partly specified) , write its normalized growth.
1

For `O=C(O)C1=C[C@@H](O)[C@@H](O)[C@H](O)C1` , write its normalized growth.
0.977

For `CCCCCc1c2c(cc(O)c1C(=O)O)OC(=O)c1c(cc(OC)cc1C(=O)CCCC)O2` , write its normalized growth.
1
